Data origin, for the record: patent US20120010229A1

Target: D473H SMO mutant (Homo sapiens, UniProt Q99835, D473H)
Sequence (Q99835 28-787 D473H): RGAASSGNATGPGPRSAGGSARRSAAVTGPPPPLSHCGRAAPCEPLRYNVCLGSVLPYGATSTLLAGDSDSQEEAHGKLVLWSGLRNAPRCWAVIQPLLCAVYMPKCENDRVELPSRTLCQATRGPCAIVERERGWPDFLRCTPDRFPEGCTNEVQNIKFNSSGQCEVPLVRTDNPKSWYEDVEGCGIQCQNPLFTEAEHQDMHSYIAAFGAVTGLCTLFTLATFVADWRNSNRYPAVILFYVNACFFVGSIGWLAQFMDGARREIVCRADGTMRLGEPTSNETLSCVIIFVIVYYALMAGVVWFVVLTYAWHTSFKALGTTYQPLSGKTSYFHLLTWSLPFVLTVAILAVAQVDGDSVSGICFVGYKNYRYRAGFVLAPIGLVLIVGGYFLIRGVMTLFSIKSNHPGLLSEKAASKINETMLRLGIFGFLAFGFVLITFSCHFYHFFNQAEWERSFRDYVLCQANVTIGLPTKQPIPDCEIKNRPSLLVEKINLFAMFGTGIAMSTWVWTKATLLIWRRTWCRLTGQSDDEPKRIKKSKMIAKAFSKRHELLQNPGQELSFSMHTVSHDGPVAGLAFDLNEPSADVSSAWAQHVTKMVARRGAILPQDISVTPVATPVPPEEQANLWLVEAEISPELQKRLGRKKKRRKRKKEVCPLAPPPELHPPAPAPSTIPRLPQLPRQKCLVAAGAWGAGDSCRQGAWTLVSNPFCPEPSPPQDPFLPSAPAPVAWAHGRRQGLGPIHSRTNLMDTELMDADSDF
Assay: Gli-luciferase reporter assay, C3H10T1/2 cells transfected with D473H SMO
Value Kind: pIC50
The quantity pIC50 is defined as the negative base-10 logarithm of the molar concentration.

Lab note: CC1=C2C[C@H]3[C@@H](CC[C@@H]4C[C@H](NS(C)(=O)=O)CC[C@@]43C)[C@@H]2CC[C@@]2(C1)O[C@@H]1C[C@H](C)CN[C@H]1[C@H]2C gave pIC50 of 6.61
